Procedure text: AUC (0-6h) in rat at 10 mg/kg, po
Assay type: ADME, organism-based
Set-up: time < 6 hr, dose 10 mg/kg, route oral
Condition set: plasma
Experimental readout: AUC(0-t) at 6 h (ng·h/mL)
Please state the figure in ng·h/mL; there is no need to write the unit.

Some solved entries appear below for comparison.
CC(C)C(=O)Nc1cccc([C@]23CC[C@@H](N(CCCN4CCN(C)CC4)C(=O)Nc4ccc(F)c(Cl)c4)[C@H]2C3)c1 :: 339
CN1CCN(CCCN(C(=O)Nc2ccc(F)c(Cl)c2)[C@@H]2CC[C@]3(c4cccc(NC(=O)C5CC5)c4)C[C@H]23)CC1 :: 634

[in] Reported AUC(0-t) at 6 h for CCNC(=O)Nc1cccc([C@]23CC[C@@H](N(CCCN4CCN(C)CC4)C(=O)Nc4ccc(F)c(Cl)c4)[C@H]2C3)c1 : what is it?
[out] 127

----------
Tested system: UniProt:Q12809
Procedure text: Inhibition of hERG channel by rubidium efflux assay at 5 ug/ml
Type: toxicity
Examples of compounds with documented inhibition at 5 ug/ml follow.
# value in %; strip the unit string

Example entries and their recorded answers appear below.
COc1cccc([C@]23CC[C@@H](N(CCCN4CCN(C)CC4)C(=O)Nc4ccc(F)c(Cl)c4)[C@H]2C3)c1 :: 70
CN1CCN(CCCN(C(=O)Nc2ccc(F)c(C(F)(F)F)c2)[C@@H]2CC[C@]3(c4ccc5onc(N)c5c4)C[C@H]23)CC1 :: 46
CN1CCN(CCCN(C(=O)Nc2ccc(F)c(C(F)(F)F)c2)[C@@H]2CC[C@]3(c4ccc5c(N)noc5c4)C[C@H]23)CC1 :: 26
CN1CCN(CCCN(C(=O)Nc2ccc(F)c(Cl)c2)[C@@H]2CC[C@]3(c4cccc(N)c4)C[C@H]23)CC1 :: 25
CN1CCN(CCCN(C(=O)Nc2ccc(F)c(C(F)(F)F)c2)[C@@H]2CC[C@]3(c4nccs4)C[C@H]23)CC1 :: 27

[in] What does the record list as inhibition at 5 ug/ml for CN1CCN(CCCN(C(=O)Nc2ccc(F)c(Cl)c2)[C@@H]2CC[C@]3(c4cccc(N5CCCC5=O)c4)C[C@H]23)CC1 ?
[out] 14

[in] Which inhibition at 5 ug/ml is listed for CC(C)C(=O)Nc1cccc([C@]23CC[C@@H](N(CCCN4CCN(C)CC4)C(=O)Nc4ccc(F)c(Cl)c4)[C@H]2C3)c1 ?
[out] 37

[in] So what does the record say about inhibition at 5 ug/ml for CN1CCN(CCCN(C(=O)Nc2ccc(F)c(Cl)c2)[C@@H]2CC[C@]3(c4cccc(N5CCC5)c4)C[C@H]23)CC1 ?
[out] 29

[in] Query (compound): CC(=O)Nc1ccc([C@]23CC[C@@H](N(CCCN4CCN(C)CC4)C(=O)Nc4ccc(F)c(Cl)c4)[C@H]2C3)cc1 ; field requested: inhibition at 5 ug/ml
[out] 18

[in] Give the measured inhibition at 5 ug/ml of CN1CCN(CCCN(C(=O)Nc2ccc(F)c(Cl)c2)[C@@H]2CC[C@]3(c4cccc(NC(=O)C5CC5)c4)C[C@H]23)CC1 .
[out] 46

----------
Tested system: Melanin-concentrating hormone receptor 1 (Homo sapiens)
Sequence (Q99705 whole entry): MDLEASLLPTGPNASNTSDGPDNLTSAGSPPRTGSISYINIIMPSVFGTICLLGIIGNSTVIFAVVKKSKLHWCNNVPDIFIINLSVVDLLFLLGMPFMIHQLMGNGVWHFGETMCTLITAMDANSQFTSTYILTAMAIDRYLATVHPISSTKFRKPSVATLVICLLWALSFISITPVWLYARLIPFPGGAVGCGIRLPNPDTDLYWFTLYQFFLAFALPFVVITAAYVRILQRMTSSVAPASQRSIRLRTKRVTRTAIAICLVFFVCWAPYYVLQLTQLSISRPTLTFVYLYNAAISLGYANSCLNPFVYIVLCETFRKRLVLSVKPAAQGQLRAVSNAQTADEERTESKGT
Experimental readout: Ki (µM)
Return type: number; implicit unit µM.

[in] Which measured Ki value corresponds to CN1CCN(CCCN(C(=O)Nc2ccc(F)c(C(F)(F)F)c2)[C@@H]2CC[C@]3(c4ccc5c(c4)CC(=O)N5)C[C@H]23)CC1 ?
[out] 0.015

----------
Tested system: hERG (Homo sapiens)
Sequence (Q12809 whole entry): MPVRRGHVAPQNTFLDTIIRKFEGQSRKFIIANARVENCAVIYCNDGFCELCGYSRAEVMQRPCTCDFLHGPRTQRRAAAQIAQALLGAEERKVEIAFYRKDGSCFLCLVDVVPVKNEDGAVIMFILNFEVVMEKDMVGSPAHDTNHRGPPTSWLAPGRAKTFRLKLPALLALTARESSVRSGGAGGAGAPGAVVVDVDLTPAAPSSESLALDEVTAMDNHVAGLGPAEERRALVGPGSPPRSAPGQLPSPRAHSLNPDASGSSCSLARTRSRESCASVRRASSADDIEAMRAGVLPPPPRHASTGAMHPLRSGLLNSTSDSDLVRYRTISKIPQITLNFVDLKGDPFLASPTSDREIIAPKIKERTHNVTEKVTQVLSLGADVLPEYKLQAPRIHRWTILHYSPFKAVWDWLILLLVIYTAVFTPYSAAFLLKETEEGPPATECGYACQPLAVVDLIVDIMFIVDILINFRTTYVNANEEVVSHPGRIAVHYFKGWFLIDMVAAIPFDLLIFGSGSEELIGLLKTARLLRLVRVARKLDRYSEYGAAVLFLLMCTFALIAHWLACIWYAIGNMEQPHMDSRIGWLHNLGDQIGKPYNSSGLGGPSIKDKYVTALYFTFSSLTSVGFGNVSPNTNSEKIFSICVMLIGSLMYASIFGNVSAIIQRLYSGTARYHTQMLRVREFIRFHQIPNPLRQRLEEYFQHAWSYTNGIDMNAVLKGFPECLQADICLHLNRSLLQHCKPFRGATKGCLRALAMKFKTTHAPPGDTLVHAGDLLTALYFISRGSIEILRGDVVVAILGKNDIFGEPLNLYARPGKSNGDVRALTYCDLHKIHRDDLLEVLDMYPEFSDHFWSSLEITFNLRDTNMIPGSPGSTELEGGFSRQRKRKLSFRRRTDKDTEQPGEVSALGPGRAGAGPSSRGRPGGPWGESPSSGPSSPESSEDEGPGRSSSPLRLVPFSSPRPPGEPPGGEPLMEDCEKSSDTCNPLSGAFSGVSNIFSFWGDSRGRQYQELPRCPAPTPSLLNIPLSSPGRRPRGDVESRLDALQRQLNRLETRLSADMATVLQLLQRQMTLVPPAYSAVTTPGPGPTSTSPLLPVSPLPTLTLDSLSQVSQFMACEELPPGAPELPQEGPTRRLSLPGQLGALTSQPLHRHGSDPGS
Procedure text: Inhibition of hERG channel by rubidium efflux assay at 5 ug/ml
Format: toxicity
Kindly note that classification relies on inhibition at 5 ug/ml with these boundaries: LOW (below 30%), MEDIUM (30% to below 60%), HIGH (60% or more)

Some solved cases for reference:
CN1CCN(CCCN(C(=O)Nc2ccc(F)c(C(F)(F)F)c2)[C@@H]2CC[C@]3(c4ccc(C#N)cc4)C[C@H]23)CC1 :: HIGH
CCC(=O)Nc1cccc([C@]23CC[C@@H](N(CCCN4CCN(C)CC4)C(=O)Nc4ccc(F)c(Cl)c4)[C@H]2C3)c1 :: MEDIUM
CN1CCN(CCCN(C(=O)Nc2ccc(F)c(Cl)c2)[C@@H]2CC[C@]3(c4ccc(F)cc4)C[C@H]23)CC1 :: HIGH

Please find the next molecule below.
[in] Entry CCNC(=O)Nc1cccc([C@]23CC[C@@H](N(CCCN4CCN(C)CC4)C(=O)Nc4ccc(F)c(Cl)c4)[C@H]2C3)c1 belongs to which category?
[out] LOW

----------
Tested system: hERG (Homo sapiens)
Procedure text: Inhibition of hERG channel by rubidium efflux assay at 5 ug/ml
Assay type: toxicity
Mark not met for inhibition at 5 ug/ml values under 50%, and met for everything at or above.

CN1CCN(CCCN(C(=O)Nc2ccc(F)c(Cl)c2)[C@@H]2CC[C@]3(c4cccc(NC(=O)C(C)(C)C)c4)C[C@H]23)CC1 :: not met
COc1ccc([C@]23CC[C@@H](N(CCCN4CCN(C)CC4)C(=O)Nc4ccc(F)c(C(F)(F)F)c4)[C@H]2C3)cn1 :: not met
CN1CCN(CCCN(C(=O)Nc2ccc(F)c(Cl)c2)[C@@H]2CC[C@]3(c4cccnc4)C[C@H]23)CC1 :: met
CC(=O)Nc1cccc([C@]23CC[C@@H](N(CCCN4CCN(C)CC4)C(=O)Nc4ccc(F)c(Cl)c4)[C@H]2C3)c1 :: not met
CN1CCN(CCCN(C(=O)Nc2ccc(F)c(Cl)c2)[C@@H]2CC[C@]3(c4ccccc4)C[C@H]23)CC1 :: met
CN1CCN(CCCN(C(=O)Nc2ccc(F)c(C(F)(F)F)c2)[C@@H]2CC[C@]3(c4ccc(=O)[nH]c4)C[C@H]23)CC1 :: not met
CNC(=O)c1ccc([C@]23CC[C@@H](N(CCCN4CCN(C)CC4)C(=O)Nc4ccc(F)c(C(F)(F)F)c4)[C@H]2C3)cc1 :: not met
CN1CCN(CCCN(C(=O)Nc2ccc(F)c(C(F)(F)F)c2)[C@@H]2CC[C@]3(c4ccsc4)C[C@H]23)CC1 :: met
CN1CCN(CCCN(C(=O)Nc2ccc(F)c(C(F)(F)F)c2)[C@@H]2CC[C@]3(c4ccc(S(C)(=O)=O)cc4)C[C@H]23)CC1 :: not met
CN1CCN(CCCN(C(=O)Nc2ccc(F)c(Cl)c2)[C@@H]2CC[C@]3(c4ccc(N)cc4)C[C@H]23)CC1 :: not met

[in] Reported inhibition at 5 ug/ml reaches at least 50% for CN1CCN(CCCN(C(=O)Nc2ccc(F)c(Cl)c2)[C@@H]2CC[C@]3(c4ccc(NC(=O)OC(C)(C)C)cc4)C[C@H]23)CC1 ?
[out] met

[in] Check this molecule for inhibition at 5 ug/ml at or above 50%: COC(=O)c1ccc([C@]23CC[C@@H](N(CCCN4CCN(C)CC4)C(=O)Nc4ccc(F)c(C(F)(F)F)c4)[C@H]2C3)cc1 (single isomer, unassigned)
[out] met
